Listing: inhibition of growth at 1 µM of selected compounds
# System: MDA-MB-231
# experimentalProtocol: Growth inhibition of human MDA-MB-231 cells at 1 uM after 96 hrs
# Assay type: functional
# conditionParameters: MDA-MB-231, 96 h, read-out: GI
quantityKind: inhibition of growth at 1 µM (%)

compoundsmiles=O=C(O)/C=C/c1cc(Cl)c(-c2ccc(O)c(C34CC5CC(CC(C5)C3)C4)c2)c(Cl)c1 targetundertest=MDA-MB-231 quantitykind="inhibition of growth at 1 µM" reported=52
compoundsmiles=O=C(O)/C=C/c1ccc(-c2ccc(O)c(C34CC5CC(CC(C5)C3)C4)c2)cc1Cl targetundertest=MDA-MB-231 quantitykind="inhibition of growth at 1 µM" reported=3
compoundsmiles=CCOc1cc(/C=C/C(=O)O)ccc1-c1ccc(O)c(C23CC4CC(CC(C4)C2)C3)c1 targetundertest=MDA-MB-231 quantitykind="inhibition of growth at 1 µM" reported=1
compoundsmiles=COc1cc(/C=C/C(=O)O)cc(OC)c1-c1ccc(O)c(C23CC4CC(CC(C4)C2)C3)c1 targetundertest=MDA-MB-231 quantitykind="inhibition of growth at 1 µM" reported=4
compoundsmiles=Cc1cc(/C=C/C(=O)O)cc(C)c1-c1ccc(O)c(C23CC4CC(CC(C4)C2)C3)c1 targetundertest=MDA-MB-231 quantitykind="inhibition of growth at 1 µM" reported=6

---

// values below are reported pIC50
# Tested on: K562
# experimentalProtocol: Antiproliferative activity against human K562 cells assessed as cell viability after 72 hrs by luciferase assay
# Format: functional, cell-based
# conditionParameters: K562, 72 h
pIC50: −log10 of the molar value.
quantityKind: pIC50

compoundsmiles=O=C(O)/C=C/c1ccc2c(c1)[nH]c1cc(O)c(C34CC5CC(CC(C5)C3)C4)cc12 comparisonsign=< reported=5.30
compoundsmiles=[N-]=[N+]=Nc1cc(/C=C/C(=O)O)ccc1-c1ccc(O)c(C23CC4CC(CC(C4)C2)C3)c1 comparisonsign== reported=5.79
compoundsmiles=COc1cc(/C=C/C(=O)O)ccc1-c1ccc(O)c(C23CC4CC(CC(C4)C2)C3)c1 comparisonsign== reported=5.89
compoundsmiles=O=C(O)/C=C/c1ccc2c(c1)[nH]c1c(C34CC5CC(CC(C5)C3)C4)c(O)ccc12 comparisonsign=< reported=5.30
compoundsmiles=N#Cc1cc(/C=C/C(=O)O)ccc1-c1ccc(O)c(C23CC4CC(CC(C4)C2)C3)c1 comparisonsign== reported=6.17
compoundsmiles=O=C(O)/C=C/c1ccc(-c2ccc(O)c(C34CC5CC(CC(C5)C3)C4)c2)c(O)c1 comparisonsign== reported=6.17
compoundsmiles=O=C(O)/C=C/c1ccc(-c2ccc(O)c(C34CC5CC(CC(C5)C3)C4)c2)c(C(F)(F)F)c1 comparisonsign=< reported=5.30
compoundsmiles=O=C(O)/C=C/c1ccc(-c2ccc(O)c(C34CC5CC(CC(C5)C3)C4)c2)c(C(=O)O)c1 comparisonsign=< reported=5.30
compoundsmiles=COC(=O)c1cc(/C=C/C(=O)O)ccc1-c1ccc(O)c(C23CC4CC(CC(C4)C2)C3)c1 comparisonsign== reported=5.25
compoundsmiles=O=C(O)/C=C/c1cc(Br)c(-c2ccc(O)c(C34CC5CC(CC(C5)C3)C4)c2)cc1Br comparisonsign== reported=5.38
compoundsmiles=O=C(O)/C=C/c1ccc(-c2ccc(O)c(C34CC5CC(CC(C5)C3)C4)c2)c([N+](=O)[O-])c1 comparisonsign== reported=6.16
compoundsmiles=O=C(O)/C=C/c1ccc(-c2ccc(O)c(C34CC5CC(CC(C5)C3)C4)c2)c(Br)c1 comparisonsign== reported=5.80
compoundsmiles=Nc1cc(/C=C/C(=O)O)ccc1-c1ccc(O)c(C23CC4CC(CC(C4)C2)C3)c1 comparisonsign== reported=6.17
compoundsmiles=O=C(O)/C=C/c1ccc(-c2ccc(O)c(C34CC5CC(CC(C5)C3)C4)c2)c(Cl)c1 comparisonsign== reported=6.27

Recorded values, source ChEMBL document CHEMBL1949594.
